Test: Solubility in simulated gastric fluid
Assay type: physicochemical
Details: read-out: S
Assay Endpoint: solubility

Completed entries (count: 10):
Tell me solubility reported for N/C(=N/CCC[C@H](NC(=O)[C@H](CC1CCCCC1)[C@H](CCC(F)(F)F)N(O)C=O)C(=O)Nc1nccs1)N[N+](=O)[O-]
54 µg/mL

Tell me its solubility given CCC[C@@H]([C@@H](CC1CCC(C)CC1)C(=O)N[C@@H](CCCN=C(N)NS(=O)(=O)c1ccccn1)C(=O)Nc1nccs1)N(O)C=O (stereo partly specified) as the entry.
160 µg/mL

Quickly give me recorded solubility for CC(C)C[C@@H](C(=O)N[C@H](C(=O)Nc1nccs1)[C@H](C)CC/N=C(/N)NS(C)(=O)=O)[C@H](C)N(O)C=O
> 2130 µg/mL

Please look at this compound and report its solubility: CCC[C@@H]([C@@H](CC1CCCCC1)C(=O)N[C@@H](CCC/N=C(/N)N[N+](=O)[O-])C(=O)Nc1nccs1)N(O)C=O
330 µg/mL

Fill in solubility for record CC(C)C[C@@H](C(=O)N[C@H](C(=O)Nc1nccs1)[C@H](C)CC/N=C(/N)N[N+](=O)[O-])[C@H](C)N(O)C=O
> 850 µg/mL

Give the value of solubility reported for the following: CC1CCC(C[C@@H](C(=O)N[C@@H](CCC/N=C(/N)N[N+](=O)[O-])C(=O)Nc2nccs2)[C@H](C(C)C)N(O)C=O)CC1 (stereo partly specified)
210 µg/mL

Item CCC[C@@H]([C@@H](CC(C)C)C(=O)N[C@@H](CCC/N=C(/N)N[N+](=O)[O-])C(=O)Nc1nccs1)N(O)C=O : provide solubility
> 1600 µg/mL

Please indicate solubility recorded for CC1CCC(C[C@@H](C(=O)N[C@@H](CCCN=C(N)NS(C)(=O)=O)C(=O)Nc2nccs2)[C@H](C(C)C)N(O)C=O)CC1 (stereo partly specified)
1400 µg/mL

Determine from records and report solubility for CCC[C@@H]([C@@H](CC1CCC(C)CC1)C(=O)N[C@@H](CCC/N=C(/N)N[N+](=O)[O-])C(=O)Nc1nccs1)N(O)C=O (stereo partly specified)
160 µg/mL

Please list solubility recorded for the compound CCC[C@@H]([C@@H](CC(C)C)C(=O)N[C@@H](CCCN=C(N)NS(C)(=O)=O)C(=O)Nc1nccs1)N(O)C=O
> 1130 µg/mL

Now consider a different compound.
Answer with the recorded solubility for the compound listed here: NC(=NCCC[C@H](NC(=O)[C@H](CC1CCCCC1)[C@H](C1CC1)N(O)C=O)C(=O)Nc1nccs1)N[N+](=O)[O-]
920 µg/mL

---

Molecular target: Interstitial collagenase (Homo sapiens)
Sequence (P03956 whole entry): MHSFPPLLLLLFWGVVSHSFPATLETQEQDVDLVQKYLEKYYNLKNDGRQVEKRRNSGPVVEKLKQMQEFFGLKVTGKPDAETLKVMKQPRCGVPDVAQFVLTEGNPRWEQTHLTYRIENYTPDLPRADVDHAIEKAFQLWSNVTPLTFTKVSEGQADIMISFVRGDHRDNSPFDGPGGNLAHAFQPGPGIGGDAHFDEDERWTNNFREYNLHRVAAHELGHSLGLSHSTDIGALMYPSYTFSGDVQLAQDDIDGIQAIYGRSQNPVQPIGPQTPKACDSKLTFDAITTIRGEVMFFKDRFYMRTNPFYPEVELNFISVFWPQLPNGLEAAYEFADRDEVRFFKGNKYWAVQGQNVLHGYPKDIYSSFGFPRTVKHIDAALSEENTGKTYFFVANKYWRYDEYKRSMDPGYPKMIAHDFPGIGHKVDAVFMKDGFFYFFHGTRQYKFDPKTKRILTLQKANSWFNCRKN
Assay Endpoint: IC50 (µM)
Numbers only here, please. The scale is µM.

Please review the following examples before continuing.
Answer briefly: IC50 recorded on Interstitial collagenase (Homo sapiens) for CC(C)C[C@@H](C(=O)N[C@@H](CCC/N=C(/N)N[N+](=O)[O-])C(=O)Nc1nccs1)[C@H](Cc1ccccc1)N(O)C=O
0.026

Provide IC50, system Interstitial collagenase (Homo sapiens), entry CC(C)C[C@@H](C(=O)N[C@H](C(=O)Nc1nccs1)[C@H](C)CC/N=C(/N)NS(C)(=O)=O)[C@H](C)N(O)C=O
0.018

Next, consider the following molecule.
Write IC50 of CCC[C@@H]([C@@H](CC(C)C)C(=O)N[C@@H](CCCN=C(N)NS(C)(=O)=O)C(=O)Nc1nccs1)N(O)C=O ; system used: Interstitial collagenase (Homo sapiens)
0.1
